Target: GPR120 (Homo sapiens, UniProt Q5NUL3)
Construct: expressed in transfected cells; host or cells: CHO mitoPhotinaGPR120 cells
Sequence (Q5NUL3 1-361): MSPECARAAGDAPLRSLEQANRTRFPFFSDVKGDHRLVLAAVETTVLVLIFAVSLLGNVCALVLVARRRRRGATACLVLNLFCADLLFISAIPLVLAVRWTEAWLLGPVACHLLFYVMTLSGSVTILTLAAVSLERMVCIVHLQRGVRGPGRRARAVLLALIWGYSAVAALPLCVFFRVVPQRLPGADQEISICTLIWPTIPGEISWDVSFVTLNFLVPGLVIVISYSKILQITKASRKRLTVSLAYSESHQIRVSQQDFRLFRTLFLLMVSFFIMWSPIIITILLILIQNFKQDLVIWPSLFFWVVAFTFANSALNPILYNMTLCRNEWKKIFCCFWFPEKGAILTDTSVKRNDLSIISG
Test: GPR120 agonism in CHO mitoPhotinaGPR120 cell based assay with fluorescent (Fluo-8 calcium, FLIPRTetra) readout, Agonist Mode, dose response
Details: CHO mitoPhotinaGPR120 cells, Fluo-8 No Wash Ca2+ dye, dose response in quadruplicate, 0.0033% fatty acid free BSA
Quantity kind: EC50 (µM)

INSERT INTO assay_data (mol, quantity_kind, numeric_value) VALUES
  ('Cc1nn(-c2ccccc2)c(COc2ccc(C#N)cc2)c1C#N', 'EC50', 1.29),
  ('COc1ccc(Cn2nc(C)c(C#N)c2COc2ccc(CCO)cc2)cc1', 'EC50', 16.5),
  ('Cc1nn(-c2ccc(F)cc2)c(COc2ccc(CCO)cc2)c1C#N', 'EC50', 1.54),
  ('Cc1nn(-c2ccccc2)c(COc2ccc(CCO)cc2)c1C#N', 'EC50', 1.1),
  ('Cc1nn(-c2cccnc2)c(COc2ccc(CCO)cc2)c1C#N', 'EC50', 9.22),
  ('Cc1nn(-c2ccccc2)c(COc2ccc(CCCO)cc2F)c1C#N', 'EC50', 0.49);
